Data provenance is patent US6831078B1.

Structures can show the parent of a compound that is named as a salt.
METRIC NAME: melting point

Known melting point results, listed for orientation:
CC(C)(N)CNC(=O)N1CC(c2ccc(Cl)cc2)C1 (as salt: HCl) :: 183 to 184 °C
C=CCNC(=O)N1CC(c2ccc(C(F)(F)F)cc2)C1 :: 136 to 137.5 °C

Prompt line: # lookup: melting point of `C#CCNC(=O)N1CC(c2ccc(Cl)c(F)c2)C1`
Response line: 132 °C

Prompt line: Item `C=CCNC(=O)N1CC(c2cccc(C(F)(F)F)c2)C1` has what recorded melting point?
Response line: 64 to 66 °C

Prompt line: Please look up its melting point: CC[C@@H](O)CNC(=O)N1CC(c2ccc(F)cc2)C1 (hydrate or solvate)
Response line: 77 to 79 °C

Prompt line: Entry C[C@H](CO)NC(=O)N1CC(c2ccc(Cl)cc2)C1 [Example 39] has what melting point?
Response line: 71 to 75 °C

Prompt line: Suppose we examine the molecule `C[C@H](O)CNC(=O)N1CC(c2cccc(F)c2)C1` ; what melting point value has been reported?
Response line: 79.5 to 80 °C

Prompt line: Value lookup for melting point; key = `C[C@@H](O)CNC(=O)N1CC(c2ccc(F)c(Cl)c2)C1`
Response line: 83 to 84 °C

Prompt line: Need melting point, item `C[C@@H](O)CNC(=O)N1CC(c2ccc(F)cc2F)C1`
Response line: 88 to 89 °C

###

Below, each of the compounds is paired with its reported melting point value.

Examples from the recorded data:
C#CCNC(=O)N1CC(c2ccc(F)c(Cl)c2)C1 :: 133 °C
CC(C)(CO)NC(=O)N1CC(c2ccc(Cl)cc2)C1 :: 134 to 135 °C
CCC(C)NC(=O)N1CC(c2ccc(F)cc2)C1 (stereo not shown) :: 100 to 102 °C
CC(C)(O)CNC(=O)N1CC(c2ccc(Cl)cc2)C1 :: 114 to 115.5 °C
C#CCNC(=O)N1CC(c2cccc(Cl)c2)C1 :: 90 to 105 °C (dec.)
CC(C)(O)CNC(=O)N1CC(c2cccc(Cl)c2)C1 :: 102 °C
C[C@@H](O)CNC(=O)N1CC(c2ccc(F)c(C(F)(F)F)c2)C1 :: 69 to 71 °C
CC(C)(O)CNC(=O)N1CC(c2cccc(C(F)(F)F)c2)C1 :: 94.5 to 96 °C

Prompt line: Please report the recorded melting point for `C[C@@H](CO)NC(=O)N1CC(c2ccc(F)cc2)C1` .
Response line: 118 to 120 °C

Prompt line: Which melting point value belongs to `C[C@@H](O)CNC(=O)N1CC(c2ccc3ccccc3c2)C1` ?
Response line: 143 to 144 °C

###

METRIC NAME: melting point

C[C@H](NC(=O)N1CC(c2ccc(Cl)cc2)C1)[C@H](O)c1ccccc1 :: 120 to 122 °C

Prompt line: // query melting point value for entry `C[C@@H](O)CNC(=O)N1CC(c2cc(F)cc(Cl)c2)C1`
Response line: 81 to 82.5 °C

Prompt line: I'd like to know its melting point. The compound in question is `C=CCNC(=O)N1CC(c2cccc(Cl)c2)C1`
Response line: 65 to 66 °C

Prompt line: Would you kindly share the measured melting point for `CC(C)(O)CNC(=O)N1CC(c2cc(F)cc(Cl)c2)C1` ?
Response line: 112.5 to 113.5 °C

###

Each entry below carries its recorded melting point.

C[C@@H](O)CNC(=O)N1CC(c2cccc(Cl)c2Cl)C1 [Example 35] :: 111 °C
C[C@H](O)CNC(=O)N1CC(c2cccc(Cl)c2)C1 [Example 51] :: 78 to 80 °C
NC(=O)N1CC(c2cc(F)cc(Cl)c2)C1 [Example 69] :: 198 to 200.5 °C
CC(C)(O)CNC(=O)N1CC(c2ccc(F)c(C(F)(F)F)c2)C1 [Example 64] :: 110 to 111.5 °C
C#CCNC(=O)N1CC(c2ccccc2C(F)(F)F)C1 [Example 33] :: 101 °C

Prompt line: # input molecule: CC(O)CNC(=O)N1CC(c2ccc(Cl)cc2)C1 (stereo not shown) [Example 71] ; wanted: its melting point
Response line: 92.5 to 94 °C

Prompt line: Any idea what its melting point is? The molecule is C[C@H](O)CNC(=O)N1CC(c2cc(Cl)cc(Cl)c2)C1 [Example 49]
Response line: 110 to 111 °C

Prompt line: Endpoint output: melting point of C#CCNC(=O)N1CC(c2ccc(C(C)(C)C)cc2)C1 [Example 3] . Value?
Response line: 141 °C

Prompt line: // melting point lookup, key: C[C@@H](O)CNC(=O)N1CC(c2ccc(C(F)(F)F)cc2F)C1 [Example 58]
Response line: 106 to 107 °C

###

METRIC NAME: melting point (°C)

C[C@@H](O)CNC(=O)N1CC(c2ccccc2C(F)(F)F)C1 :: 89
O=C(NCCc1ccccn1)N1CC(c2ccc(Cl)cc2)C1 :: 125
C[C@@H](O)CNC(=O)N1CC(c2ccccc2Cl)C1 :: 109

###

METRIC NAME: melting point

Some solved cases for reference:
O=C(N[C@@H]1CCCC[C@H]1O)N1CC(c2ccc(F)cc2)C1 :: 141 to 142.5 °C
NC(=O)N1CC(c2ccc(F)cc2)C1 :: 205 to 208.5 °C
O=C(NCCCO)N1CC(c2ccc(F)cc2)C1 :: 90 to 93 °C
C#CCNC(=O)N1CC(c2ccc(F)c(F)c2)C1 :: 123 °C
NCC1CCN(C(=O)N2CC(c3ccc(Cl)cc3)C2)CC1 :: 137 to 138 °C

Consider the record given below.
Prompt line: Need melting point, item `C[C@@H](O)CNC(=O)N1CC(c2cccc(F)c2)C1`
Response line: 77.5 to 79 °C

###

# melting point listing for each entry below

Would you please look over these solved cases?
C=CCNC(=O)N1CC(c2cccc(F)c2)C1 :: 62.5 to 63.5 °C
C#CCNC(=O)N1CC(c2cc(F)cc(Cl)c2)C1 :: 108.5 to 110 °C

Prompt line: So what's the measured melting point for this one? `CC(C)(O)CNC(=O)N1CC(c2ccc(F)cc2)C1`
Response line: 77 to 78.5 °C

###

METRIC NAME: melting point

Worked examples follow.
O=C(NC[C@H](O)CO)N1CC(c2ccc(Cl)cc2)C1 :: 90 to 92 °C
CC(C)(O)CNC(=O)N1CC(c2ccc(C(F)(F)F)cc2)C1 :: 123 to 124 °C
O=C(NCCO)N1CC(c2ccc(F)cc2)C1 :: 99 to 101 °C

Prompt line: Can you share its melting point? I mean this molecule: `NC(=O)N1CC(c2cccc(C(F)(F)F)c2)C1`
Response line: 198 °C

Prompt line: Given the molecule `CCCNC(=O)N1CC(c2ccc(C(F)(F)F)cc2)C1` , what is its reported melting point?
Response line: 127 to 128.5 °C

Prompt line: Quick check: melting point of `CC(=O)CNC(=O)N1CC(c2ccc(C(F)(F)F)cc2)C1` ?
Response line: 139.5 to 141 °C

Prompt line: Fill in the blank: the reported melting point of `C[C@@H](O)CNC(=O)N1CC(c2ccc(F)c(F)c2)C1` is ____.
Response line: 108 to 109 °C

Prompt line: Look up melting point for this molecule: `C[C@@H](O)CNC(=O)N1CC(c2ccc(F)cc2)C1`
Response line: 104 to 105 °C

Prompt line: Which melting point is listed for C[C@H](CO)NC(=O)N1CC(c2ccc(Cl)cc2)C1 [Example 40] ?
Response line: 82 to 85 °C

Prompt line: What value of melting point has been recorded for this entry: COCC(C)NC(=O)N1CC(c2ccc(Cl)cc2)C1 (stereo not shown)
Response line: 110 °C

Prompt line: # input molecule: `C#CCNC(=O)N1CC(c2ccc(F)c(C(F)(F)F)c2)C1` ; wanted: its melting point
Response line: 119 °C

Prompt line: Look at this molecule and give its reported melting point. `CCCNC(=O)N1CC(c2ccc(F)cc2)C1`
Response line: 117 to 118.5 °C

Prompt line: Need melting point of `C#CCNC(=O)N1CC(c2cccc(F)c2)C1` , thanks.
Response line: 101.5 to 110.25 °C
